- Assay System: UniProt P21917
- Sequence (P21917 whole entry): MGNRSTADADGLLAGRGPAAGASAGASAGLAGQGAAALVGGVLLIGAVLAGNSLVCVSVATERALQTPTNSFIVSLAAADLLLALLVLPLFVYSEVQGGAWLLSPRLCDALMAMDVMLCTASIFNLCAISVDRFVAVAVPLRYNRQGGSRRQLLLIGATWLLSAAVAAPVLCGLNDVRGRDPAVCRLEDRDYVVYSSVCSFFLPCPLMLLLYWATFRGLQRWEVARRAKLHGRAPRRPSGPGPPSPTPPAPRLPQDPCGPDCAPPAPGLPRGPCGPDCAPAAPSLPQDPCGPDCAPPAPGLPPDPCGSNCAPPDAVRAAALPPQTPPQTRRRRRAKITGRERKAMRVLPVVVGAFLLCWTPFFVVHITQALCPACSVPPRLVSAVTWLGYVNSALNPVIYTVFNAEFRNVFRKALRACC
- Method: GPCRScan assay: inhibition of D4
- Parameters: radioligand conc. used [nm] 0.6 – 1.7, parental cells Stable HEK
- Condition Parameters: read-out: Ki
pKi: −log10 of the molar value.
Measure: pKi

compound_smiles=Cc1cc2c(-c3ccco3)cnc(N[C@@H]3CCN(C)C[C@H]3C(=O)NC3CCCCC3)c2[nH]c1=O reported_value=5.99

====

- Assay System: SWI/SNF-related matrix-associated actin-dependent regulator of chromatin subfamily A member 4 (Homo sapiens, UniProt P51532)
- Sequence (P51532 whole entry): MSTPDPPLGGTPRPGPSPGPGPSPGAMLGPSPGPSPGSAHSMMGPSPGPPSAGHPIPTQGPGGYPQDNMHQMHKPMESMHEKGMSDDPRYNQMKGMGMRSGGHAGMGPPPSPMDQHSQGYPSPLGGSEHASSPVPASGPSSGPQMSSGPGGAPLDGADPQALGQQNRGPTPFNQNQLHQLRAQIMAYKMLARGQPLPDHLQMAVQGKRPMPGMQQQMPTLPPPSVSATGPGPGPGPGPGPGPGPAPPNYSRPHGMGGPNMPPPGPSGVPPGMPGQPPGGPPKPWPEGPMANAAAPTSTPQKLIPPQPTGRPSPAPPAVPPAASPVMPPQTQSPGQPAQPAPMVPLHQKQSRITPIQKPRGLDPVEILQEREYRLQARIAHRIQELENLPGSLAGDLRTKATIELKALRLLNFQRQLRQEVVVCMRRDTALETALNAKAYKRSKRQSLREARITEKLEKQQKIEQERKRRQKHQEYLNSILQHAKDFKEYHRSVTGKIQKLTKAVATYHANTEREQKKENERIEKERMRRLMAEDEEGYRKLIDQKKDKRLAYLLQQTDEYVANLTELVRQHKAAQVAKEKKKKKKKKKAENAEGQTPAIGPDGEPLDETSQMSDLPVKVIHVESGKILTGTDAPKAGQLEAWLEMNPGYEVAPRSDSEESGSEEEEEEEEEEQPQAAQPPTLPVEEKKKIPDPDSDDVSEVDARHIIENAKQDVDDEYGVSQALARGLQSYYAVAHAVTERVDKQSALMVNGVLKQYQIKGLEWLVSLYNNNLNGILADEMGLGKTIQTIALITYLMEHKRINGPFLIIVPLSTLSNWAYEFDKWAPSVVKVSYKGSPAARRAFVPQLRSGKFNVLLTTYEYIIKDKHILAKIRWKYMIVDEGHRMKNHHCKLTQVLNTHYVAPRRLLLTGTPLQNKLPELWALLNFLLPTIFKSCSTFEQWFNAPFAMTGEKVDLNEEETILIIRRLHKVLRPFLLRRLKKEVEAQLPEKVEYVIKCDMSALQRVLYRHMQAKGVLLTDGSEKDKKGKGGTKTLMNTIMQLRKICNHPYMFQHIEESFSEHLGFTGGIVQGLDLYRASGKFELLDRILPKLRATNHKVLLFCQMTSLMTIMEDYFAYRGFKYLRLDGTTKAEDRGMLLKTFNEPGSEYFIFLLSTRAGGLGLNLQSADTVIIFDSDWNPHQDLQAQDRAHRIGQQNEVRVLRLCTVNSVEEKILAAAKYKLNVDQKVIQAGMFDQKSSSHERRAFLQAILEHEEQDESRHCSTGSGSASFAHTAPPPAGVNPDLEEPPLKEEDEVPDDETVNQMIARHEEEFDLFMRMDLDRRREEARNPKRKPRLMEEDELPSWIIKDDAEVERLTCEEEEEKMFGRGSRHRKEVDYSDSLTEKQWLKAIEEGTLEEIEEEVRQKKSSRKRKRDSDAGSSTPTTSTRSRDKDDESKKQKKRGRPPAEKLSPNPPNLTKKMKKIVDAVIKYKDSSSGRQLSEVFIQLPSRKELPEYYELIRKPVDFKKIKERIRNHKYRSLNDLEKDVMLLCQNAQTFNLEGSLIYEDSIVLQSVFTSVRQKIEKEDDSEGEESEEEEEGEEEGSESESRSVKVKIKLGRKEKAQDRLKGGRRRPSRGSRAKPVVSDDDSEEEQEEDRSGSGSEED
- Method: SMARCA4 DiscoverX BROMOscan
pKd: −log10 of the molar value.
Measure: pKd

compound_smiles=Cc1cc2c(-c3ccco3)cnc(N[C@@H]3CCN(C)C[C@H]3C(=O)NC3CCCCC3)c2[nH]c1=O measure=pKd reported_value=4.50

====

- Assay System: Histone acetyltransferase KAT2B (Homo sapiens)
- Sequence (Q92831 whole entry): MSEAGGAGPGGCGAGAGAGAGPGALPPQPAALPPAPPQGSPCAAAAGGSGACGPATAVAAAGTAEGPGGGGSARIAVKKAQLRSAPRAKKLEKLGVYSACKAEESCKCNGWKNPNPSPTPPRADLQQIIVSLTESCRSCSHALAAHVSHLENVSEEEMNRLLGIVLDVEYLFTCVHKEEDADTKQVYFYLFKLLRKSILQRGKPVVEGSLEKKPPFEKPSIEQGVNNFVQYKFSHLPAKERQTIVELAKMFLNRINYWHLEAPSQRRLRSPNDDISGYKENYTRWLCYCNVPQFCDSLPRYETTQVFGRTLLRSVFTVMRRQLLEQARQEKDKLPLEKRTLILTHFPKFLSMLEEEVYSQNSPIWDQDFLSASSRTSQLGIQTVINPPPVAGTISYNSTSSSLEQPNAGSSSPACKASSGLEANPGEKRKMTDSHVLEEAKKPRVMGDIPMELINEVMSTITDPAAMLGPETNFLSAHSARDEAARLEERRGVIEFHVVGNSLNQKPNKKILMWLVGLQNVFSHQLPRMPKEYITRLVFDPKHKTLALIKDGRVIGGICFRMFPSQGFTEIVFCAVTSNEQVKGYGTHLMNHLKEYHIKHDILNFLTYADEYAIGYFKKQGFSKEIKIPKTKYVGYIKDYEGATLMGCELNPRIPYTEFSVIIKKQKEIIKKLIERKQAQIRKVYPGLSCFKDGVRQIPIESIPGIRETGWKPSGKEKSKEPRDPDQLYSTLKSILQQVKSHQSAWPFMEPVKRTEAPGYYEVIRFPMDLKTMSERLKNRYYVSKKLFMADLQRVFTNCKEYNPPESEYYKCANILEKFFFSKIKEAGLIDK
- Method: PCAF DiscoverX BROMOscan
pKd: −log10 of the molar value.
Measure: pKd

compound_smiles=Cc1cc2c(-c3ccco3)cnc(N[C@@H]3CCN(C)C[C@H]3C(=O)NC3CCCCC3)c2[nH]c1=O reported_value=4.50

====

- Assay System: Bromodomain and WD repeat-containing protein 1 (Homo sapiens)
- Sequence (Q9NSI6 whole entry): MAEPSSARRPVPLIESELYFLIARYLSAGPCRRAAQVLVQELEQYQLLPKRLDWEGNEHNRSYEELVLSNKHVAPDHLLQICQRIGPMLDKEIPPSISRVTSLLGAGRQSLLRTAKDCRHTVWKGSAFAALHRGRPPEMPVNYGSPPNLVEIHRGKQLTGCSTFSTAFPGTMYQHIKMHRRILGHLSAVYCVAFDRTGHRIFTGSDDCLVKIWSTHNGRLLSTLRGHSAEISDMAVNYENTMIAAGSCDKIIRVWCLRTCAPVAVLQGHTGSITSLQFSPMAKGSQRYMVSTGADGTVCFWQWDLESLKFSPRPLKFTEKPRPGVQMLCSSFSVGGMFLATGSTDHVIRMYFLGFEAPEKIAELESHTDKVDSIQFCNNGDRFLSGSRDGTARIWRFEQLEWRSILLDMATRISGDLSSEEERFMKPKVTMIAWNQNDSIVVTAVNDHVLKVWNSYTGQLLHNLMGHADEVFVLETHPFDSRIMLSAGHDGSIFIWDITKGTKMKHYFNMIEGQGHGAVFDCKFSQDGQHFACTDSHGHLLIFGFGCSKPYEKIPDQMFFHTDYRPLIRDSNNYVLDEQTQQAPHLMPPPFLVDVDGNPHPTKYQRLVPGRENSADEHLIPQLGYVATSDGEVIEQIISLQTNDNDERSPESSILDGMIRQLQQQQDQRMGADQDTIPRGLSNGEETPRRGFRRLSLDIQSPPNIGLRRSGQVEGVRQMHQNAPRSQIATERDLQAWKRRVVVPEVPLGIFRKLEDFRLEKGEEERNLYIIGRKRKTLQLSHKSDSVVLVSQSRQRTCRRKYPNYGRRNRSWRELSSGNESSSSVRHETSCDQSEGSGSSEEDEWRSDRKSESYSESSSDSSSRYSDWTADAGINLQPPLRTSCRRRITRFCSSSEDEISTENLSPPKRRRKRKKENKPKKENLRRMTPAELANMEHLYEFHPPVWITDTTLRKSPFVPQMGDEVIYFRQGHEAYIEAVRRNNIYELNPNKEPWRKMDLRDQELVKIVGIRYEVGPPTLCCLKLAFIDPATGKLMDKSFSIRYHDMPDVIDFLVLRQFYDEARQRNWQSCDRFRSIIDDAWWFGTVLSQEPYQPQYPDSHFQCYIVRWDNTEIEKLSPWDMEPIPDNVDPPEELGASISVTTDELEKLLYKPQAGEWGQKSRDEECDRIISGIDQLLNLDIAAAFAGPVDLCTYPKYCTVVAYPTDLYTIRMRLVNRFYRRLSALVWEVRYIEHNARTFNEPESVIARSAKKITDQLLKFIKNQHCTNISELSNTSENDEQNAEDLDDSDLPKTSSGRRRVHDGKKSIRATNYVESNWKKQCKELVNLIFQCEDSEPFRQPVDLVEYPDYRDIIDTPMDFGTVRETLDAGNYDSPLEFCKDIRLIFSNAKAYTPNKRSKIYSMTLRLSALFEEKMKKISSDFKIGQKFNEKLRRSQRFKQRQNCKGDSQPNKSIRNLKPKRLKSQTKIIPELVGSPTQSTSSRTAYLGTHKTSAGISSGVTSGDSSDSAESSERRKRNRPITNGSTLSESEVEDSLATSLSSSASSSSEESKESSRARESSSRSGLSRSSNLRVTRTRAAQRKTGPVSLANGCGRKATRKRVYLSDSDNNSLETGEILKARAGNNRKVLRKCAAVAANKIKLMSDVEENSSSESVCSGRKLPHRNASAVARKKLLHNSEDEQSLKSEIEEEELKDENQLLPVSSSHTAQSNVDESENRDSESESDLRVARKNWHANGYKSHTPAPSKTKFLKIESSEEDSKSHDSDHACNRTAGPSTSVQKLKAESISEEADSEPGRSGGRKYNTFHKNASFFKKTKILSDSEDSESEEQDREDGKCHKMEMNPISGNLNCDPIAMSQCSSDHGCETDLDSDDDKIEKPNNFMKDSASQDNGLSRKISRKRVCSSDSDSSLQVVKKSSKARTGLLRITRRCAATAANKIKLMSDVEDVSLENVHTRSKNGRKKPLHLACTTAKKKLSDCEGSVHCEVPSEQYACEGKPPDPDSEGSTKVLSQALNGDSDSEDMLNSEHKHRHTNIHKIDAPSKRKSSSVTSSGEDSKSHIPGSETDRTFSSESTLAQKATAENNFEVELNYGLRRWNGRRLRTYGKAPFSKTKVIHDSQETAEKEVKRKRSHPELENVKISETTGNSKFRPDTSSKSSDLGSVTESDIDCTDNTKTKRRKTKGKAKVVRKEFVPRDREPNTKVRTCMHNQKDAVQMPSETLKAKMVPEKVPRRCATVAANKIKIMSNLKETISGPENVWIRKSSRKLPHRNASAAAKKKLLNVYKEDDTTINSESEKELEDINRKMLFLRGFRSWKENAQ
- Method: WDR9 (BD2) DiscoverX BROMOscan
Measure: Kd (µM)

compound_smiles=Cc1cc2c(-c3ccco3)cnc(N[C@@H]3CCN(C)C[C@H]3C(=O)NC3CCCCC3)c2[nH]c1=O reported_value=31.6

====

- Assay System: Bromodomain-containing protein 9 (Homo sapiens, UniProt Q9H8M2)
- Sequence (Q9H8M2 whole entry): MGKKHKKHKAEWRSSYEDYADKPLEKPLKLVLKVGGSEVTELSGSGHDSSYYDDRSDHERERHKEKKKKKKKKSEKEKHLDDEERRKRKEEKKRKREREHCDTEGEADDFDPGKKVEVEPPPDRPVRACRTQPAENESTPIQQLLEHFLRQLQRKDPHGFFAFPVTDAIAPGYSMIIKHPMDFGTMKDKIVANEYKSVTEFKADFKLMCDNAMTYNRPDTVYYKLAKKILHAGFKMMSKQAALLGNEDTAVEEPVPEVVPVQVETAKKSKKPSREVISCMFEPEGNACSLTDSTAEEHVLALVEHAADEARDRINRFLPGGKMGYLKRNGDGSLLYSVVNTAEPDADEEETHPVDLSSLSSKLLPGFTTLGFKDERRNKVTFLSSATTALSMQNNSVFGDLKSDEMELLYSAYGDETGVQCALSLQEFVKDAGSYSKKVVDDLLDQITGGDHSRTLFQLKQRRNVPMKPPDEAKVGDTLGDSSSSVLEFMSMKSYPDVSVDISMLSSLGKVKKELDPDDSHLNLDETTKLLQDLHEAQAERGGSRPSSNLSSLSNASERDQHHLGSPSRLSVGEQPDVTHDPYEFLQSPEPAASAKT
- Method: BRD9 DiscoverX BROMOscan
pKd: −log10 of the molar value.
Measure: pKd

compound="Cc1cc2c(-c3ccco3)cnc(N[C@@H]3CCN(C)C[C@H]3C(=O)NC3CCCCC3)c2[nH]c1=O [GSK789]" reported_value=4.50

Origin of the recorded values: ChEMBL document CHEMBL4630905
